experiment: Stability of compound in pH 4.88 HCl aqueous solution assessed as parent compound remaining at 0.026 mmol measured after 24 hrs; format: physicochemical; conditions: read-out: Stability
outcome-measure: remaining at 24 h, 0.026 mmol

Param item = CC[C@@]12CCCN3CCc4c([nH]c5ccccc45)[C@]31N(Cc1cn(Cc3ccccc3)nn1)C(=O)C2 ; retrieve measured remaining at 24 h, 0.026 mmol.
99.2%

###

assay: Stability of compound in pH 2.0 HCl aqueous solution assessed as parent compound remaining at 0.025 mmol measured after 24 hrs; format: physicochemical; conditions: read-out: Stability
outcome-measure: remaining at 24 h, 0.025 mmol (%)
Please state the figure in %; there is no need to write the unit.

Param item = CC[C@@]12CCCN3CCc4c([nH]c5ccccc45)[C@]31N(Cc1cn(Cc3ccccc3)nn1)C(=O)C2 ; retrieve measured remaining at 24 h, 0.025 mmol.
92.1

This collection of values is drawn from ChEMBL document CHEMBL4342456.
